EXPERIMENT SUMMARY: chemical genetic growth profiling, strain panel (AID 1159580);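 also: tested at 20 µM; growth read once vehicle control cultures reached saturation at 30 °C; 1 = growth at the plate median or of vehicle wells; lower values mean less growth of the strain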
TEST SETTINGS: S. cerevisiae deletion strains, growth OD, locus YDR297W, strain sur2, hits give low values
Out of some 5,500 compounds screened, about 2,000 (36%) were called active. Inconclusive results (about 18%) are left out. This is one part of the list.
Would you kindly list normalized growth for each of these compounds?
Kindly provide the number alone.

Task item: Consider the compound CCOc1nc2cccc(C(=O)OC(C)OC(=O)OC3CCCCC3)c2n1Cc1ccc(-c2ccccc2-c2nn[nH]n2)cc1 (configuration not stated) and give its measured normalized growth.
Reply: 0.994

Task item: Consider the compound CCCCC(=O)N(Cc1ccc(-c2ccccc2-c2nn[nH]n2)cc1)[C@H](C(=O)O)C(C)C and give its measured normalized growth.
Reply: 0.994

Task item: Consider the compound Cc1c(N(C)CS(=O)(=O)O)c(=O)n(-c2ccccc2)n1C and give its measured normalized growth.
Reply: 1.01

Task item: Consider the compound CC(=O)OCC(=O)[C@@]1(O)CCC2C3CCC4=CC(=O)CC[C@]4(C)[C@@]3(F)[C@@H](O)C[C@@]21C (some centres not stated) and give its measured normalized growth.
Reply: 1

Task item: Consider the compound C=C1CC2C(CCC3(C)C(=O)CCC23)C2(C)C=CC(=O)C=C12 (configuration not stated) and give its measured normalized growth.
Reply: 0.946

Task item: Consider the compound O=C1c2ccccc2C(=O)c2c1ccc(O)c2O and give its measured normalized growth.
Reply: 0.559

Task item: Consider the compound NCCS and give its measured normalized growth.
Reply: 0.999

Task item: Consider the compound C[N+]1(C)CCc2cc3c(cc2[C@H]1C1OC(=O)c2c1ccc1c2OCO1)OCO3 (some centres not stated) and give its measured normalized growth.
Reply: 1.01

Task item: Consider the compound Cn1nnnc1SCC1=C(C(=O)O)N2C(=O)C(NC(=O)C(OC=O)c3ccccc3)C2SC1 (configuration not stated) and give its measured normalized growth.
Reply: 0.992

Task item: Consider the compound CC(=O)O[C@@H]1CC2C(C)(C)[C@H](O)C[C@H](O)[C@]2(C)C2CC[C@@]3(C)C(=CC(=O)O[C@H]3c3ccoc3)[C@@]21C (some centres not stated) and give its measured normalized growth.
Reply: 0.98

Task item: Consider the compound COC(=O)C[C@H]1C(C)(C)[C@@H](OC(C)=O)[C@@H]2CC3C4CC(=O)O[C@@H](c5ccoc5)[C@]4(C)CCC3[C@@]1(C)C2=O (some centres not stated) and give its measured normalized growth.
Reply: 0.999

Task item: Consider the compound CCCCC/C=C\C/C=C\C/C=C\C/C=C\CCCC(=O)O and give its measured normalized growth.
Reply: 0.972

Task item: Consider the compound Cn1c([N+](=O)[O-])cnc1COC(N)=O and give its measured normalized growth.
Reply: 1.02

Task item: Consider the compound FC(F)(F)COCC(F)(F)F and give its measured normalized growth.
Reply: 1.01

Task item: Consider the compound C=C(C)c1cc2cc(C(C)=O)c(O)cc2o1 and give its measured normalized growth.
Reply: 0.991

Task item: Consider the compound O=c1ccc2cc(O[C@@H]3O[C@H](CO)[C@@H](O)[C@H](O)[C@H]3O)c(O)cc2o1 and give its measured normalized growth.
Reply: 0.988

Task item: Consider the compound CCOc1ccc(Cc2nccc3cc(OCC)c(OCC)cc23)cc1OCC and give its measured normalized growth.
Reply: 0.976

Task item: Consider the compound CNC(=O)CSP(=S)(OC)OC and give its measured normalized growth.
Reply: 1.01

Task item: Consider the compound CC(C(=O)O)c1ccc(N2Cc3ccccc3C2=O)cc1 (configuration not stated) and give its measured normalized growth.
Reply: 0.99

Task item: Consider the compound CN(C)c1nc(N(C)C)nc(N(C)C)n1 and give its measured normalized growth.
Reply: 0.981

Task item: Consider the compound Cn1c(=O)[nH]c(=O)c2[nH]cnc21 and give its measured normalized growth.
Reply: 1

Task item: Consider the compound N#C/C(=C\c1ccc(O)cc1)C(=O)O and give its measured normalized growth.
Reply: 0.997

Task item: Consider the compound COP(=S)(OC)SCn1nnc2ccccc2c1=O and give its measured normalized growth.
Reply: 0.998

Task item: Consider the compound COc1c2occc2cc2ccc(=O)oc12 and give its measured normalized growth.
Reply: 0.978

Task item: Consider the compound COC(=O)C1=CO[C@@H](O[C@@H]2O[C@H](CO)[C@@H](O)[C@H](O)[C@H]2O)[C@@H]2[C@@H](C)[C@@H](O)C[C@H]12 and give its measured normalized growth.
Reply: 0.996

Task item: Consider the compound CN1Cc2c(N)cccc2C(c2ccccc2)C1 (configuration not stated) and give its measured normalized growth.
Reply: 1.01

Task item: Consider the compound Fc1ccc(C(c2ccc(F)cc2)N2CCN(C/C=C/c3ccccc3)CC2)cc1 and give its measured normalized growth.
Reply: 0.322

Task item: Consider the compound CCOC(=O)C1=C(C)NC(C)=C(C(=O)OC)C1c1cccc([N+](=O)[O-])c1 (configuration not stated) and give its measured normalized growth.
Reply: 1

Task item: Consider the compound CCCc1nc(C(C)(C)O)c(C(=O)OCc2oc(=O)oc2C)n1Cc1ccc(-c2ccccc2-c2nn[nH]n2)cc1 and give its measured normalized growth.
Reply: 0.981

Task item: Consider the compound CC(C)=CCOc1cc2oc(=O)ccc2cc1O and give its measured normalized growth.
Reply: 0.969

Task item: Consider the compound O=C1c2ccc(O)c(O)c2C(=O)c2c(O)ccc(O)c21 and give its measured normalized growth.
Reply: 0.697

Task item: Consider the compound O=C(O)c1cccc(O)c1O and give its measured normalized growth.
Reply: 1.02

Source of measurements: PubChem BioAssay AID1159580
